- Tested on: NIH3T3
- test_summary: Cytotoxic Profiling of Annotated Libraries Using Quantitative High-Throughput Screening (AID 1296008); note: % is set by controls: 0 for no effect and ±100 for the full control effect; nearly all actives have a fitted effect of over 60% in size
- experimental_parameters: Five cell lines viability, CellTiter-Glo ATP luminescence, 48-72 h; hits give low values
Inconclusive results are not listed.
measured_property: max response (%)
# output: bare number, implied unit %

Answered cases to consult:
molecule: CC1OC(O[C@H]2CC[C@@]3(C)C(CC[C@]4(C)C3CC=C3C5CC(C)(C)CC[C@]5(C(=O)OC5OC(CO)C(OC6OCC(OC7OCC(O)C(O)C7O)C(O)C6O)C(O)C5O)CC[C@]34C)C2(C)C)C(O)C(O)C1OC1OC(CO)C(O)C(OC2OC(CO)C(O)C(O)C2O)C1O (stereo partly specified)
max response (%): -1.17
--
molecule: C[C@@H]1O[C@@H](O[C@H]2[C@@H]3C=CO[C@@H](O[C@@H]4O[C@H](CO)[C@@H](O)[C@H](O)[C@H]4O)[C@@H]3[C@@]3(CO)O[C@@H]23)[C@H](O)[C@H](O)[C@H]1OC(=O)/C=C/c1ccc(O)cc1
max response (%): -3.44

Query: GET /values?readout=max response&item= C=CC(C)(O)C1CC2C3(C)CCCC(C)(C)C3C(O)C(O)C2(C)O1 (stereo unspecified)
Reply: -13.6

Query: # lookup: max response of COC(=O)C1=CO[C@@H](O[C@@H]2O[C@H](CO)[C@@H](O)[C@H](O)[C@H]2O)C2C1CC(O)C2C (stereo partly specified)
Reply: -5.32

Query: Name the reported max response value associated with the molecule `O=C(O)c1ccnc(-c2cc(C(=O)NCCc3ccccc3)ccn2)c1`
Reply: -2.98

Query: Given `C/C(=C/CO)CC[C@H]1[C@]2(C)C[C@H](O)CC(C)(C)[C@H]2CC[C@]1(C)O` , state its recorded max response.
Reply: 3.86

Values from PubChem BioAssay (NCATS)
